Data provenance is ChEMBL document CHEMBL5728520.

# MEASUREMENT_TARGET: Tyrosine-protein phosphatase non-receptor type 11 (Homo sapiens, UniProt Q06124)
# Sequence (Q06124 whole entry): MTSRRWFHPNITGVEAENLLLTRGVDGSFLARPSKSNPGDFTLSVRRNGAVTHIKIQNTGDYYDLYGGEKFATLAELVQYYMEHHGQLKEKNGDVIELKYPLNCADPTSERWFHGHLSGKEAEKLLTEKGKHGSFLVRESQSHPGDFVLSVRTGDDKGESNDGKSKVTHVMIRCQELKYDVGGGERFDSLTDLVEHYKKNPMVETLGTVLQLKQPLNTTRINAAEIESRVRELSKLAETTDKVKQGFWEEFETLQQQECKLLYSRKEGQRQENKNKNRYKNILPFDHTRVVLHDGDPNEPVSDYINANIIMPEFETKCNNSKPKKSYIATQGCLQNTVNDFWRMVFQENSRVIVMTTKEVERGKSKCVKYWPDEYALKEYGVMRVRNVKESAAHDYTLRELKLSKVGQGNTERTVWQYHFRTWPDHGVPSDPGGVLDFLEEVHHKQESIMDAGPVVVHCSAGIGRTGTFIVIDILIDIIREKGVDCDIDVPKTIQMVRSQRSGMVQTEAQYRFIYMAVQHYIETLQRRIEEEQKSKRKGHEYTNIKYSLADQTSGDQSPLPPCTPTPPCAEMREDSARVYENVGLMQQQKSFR
# MEASUREMENT_NOTES: Biochemical Assay: The inhibition of SHP2 by compounds of the invention was monitored using the surrogate substrate DiFMUP after protein activation by a peptide bearing two appropriately spaced phosphotyrosine. Full length SHP2 protein (Recombinant HumanSHP-2, E. coli derived Ser2Arg593, N-terminal 6His tag from R&D systems; […]) was incubated with activating peptide, IRSI_2pY (New England Peptide, 140 nM) and DiFMUP (molecular probes, 80 uM) at RT in buffer (HEPES pH 7.2 60 mM, DDT 5 mM, KCl 75 mM, NaCl 75 mM, EDTA 1 mM, Tween 20 0.05%) in presence of compound (10 concentrations range, top concentration 50 Î¼M) for 60 min. The generation of the DiFMU product by activated SHP2 was monitored through Fluorescence measurement with a PerkinElmer Envision reader.
pIC50: −log10 of the molar value.
RECORDED_METRIC: pIC50

[a] CC1(N)CCN(c2ncc(-c3cccc(Cl)c3Cl)c(C(N)=O)n2)CC1
[b] CC1(N)CCN(c2nc(Cl)c(-c3cccc(Cl)c3Cl)c(C(N)=O)n2)CC1
Input line: When their pIC50 values are compared, which is larger, a or b ? Output the label that corresponds to your choice.
Output line: b
